STUDY_SYSTEM: T1, ZNRF1^CTD (C-terminal domain of ZNRF1, residues 139–227) (UniProt Q8ND25 139-227)
T1 construct: ZNRF1, RING E3 ubiquitin ligase, residues 139-227 of the full-length protein (ZnF and RING domains); also called ZNRF1 C-terminal domain; ZRNF1^CTD; source: E. coli Rossetta2 (DE3), purified (HisTrap, SEC)
T1 sequence (looked up): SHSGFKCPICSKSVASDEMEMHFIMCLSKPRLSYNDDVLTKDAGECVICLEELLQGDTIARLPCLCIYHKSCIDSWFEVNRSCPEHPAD
ASSAY_REMARKS: ITC; ZNRF1 construct (10–30 µM) in the cell, E2 in the syringe; 25°C; 20 mM sodium phosphate pH 8.0, 150 mM NaCl; single site model
TEST_PARAMETERS: both partners purified
# reported stoichiometry N; entries follow
Give the value as a plain number.

Known results for binders:
binder="Ube2N^A98T (enzyme, UniProt P61088 1-152, looked up, Ube2N, ubiquitin-conjugating enzyme E2 N, with A98T; source: E. coli Rossetta2 (DE3), purified (ion exchange, SEC)) MAGLPRRIIKETQRLLAEPVPGIKAEPDESNARYFHVVIAGPQDSPFEGGTFKLELFLPEEYPMAAPKVRFMTKIYHPNVDKLGRICLDILKDKWSPTLQIRTVLLSIQALLSAPNPDDPLANDVAEQWKTNEAQAIETARAWTRLYAMNNI" observed_value=1.05
binder="Ube2N (enzyme, UniProt P61088 1-152, looked up, Ube2N, ubiquitin-conjugating enzyme E2 N; also called wtUbe2N; source: E. coli Rossetta2 (DE3), purified (ion exchange, SEC)) MAGLPRRIIKETQRLLAEPVPGIKAEPDESNARYFHVVIAGPQDSPFEGGTFKLELFLPEEYPMAAPKVRFMTKIYHPNVDKLGRICLDILKDKWSPALQIRTVLLSIQALLSAPNPDDPLANDVAEQWKTNEAQAIETARAWTRLYAMNNI" observed_value=0.915
binder="Ube2N^S96R (enzyme, UniProt P61088 1-152, looked up, Ube2N, ubiquitin-conjugating enzyme E2 N, with S96R; source: E. coli Rossetta2 (DE3), purified (ion exchange, SEC)) MAGLPRRIIKETQRLLAEPVPGIKAEPDESNARYFHVVIAGPQDSPFEGGTFKLELFLPEEYPMAAPKVRFMTKIYHPNVDKLGRICLDILKDKWRPALQIRTVLLSIQALLSAPNPDDPLANDVAEQWKTNEAQAIETARAWTRLYAMNNI" observed_value=0.828
binder="Ube2N^R14A (enzyme, UniProt P61088 1-152, looked up, Ube2N, ubiquitin-conjugating enzyme E2 N, with R14A; source: E. coli Rossetta2 (DE3), purified (ion exchange, SEC)) MAGLPRRIIKETQALLAEPVPGIKAEPDESNARYFHVVIAGPQDSPFEGGTFKLELFLPEEYPMAAPKVRFMTKIYHPNVDKLGRICLDILKDKWSPALQIRTVLLSIQALLSAPNPDDPLANDVAEQWKTNEAQAIETARAWTRLYAMNNI" observed_value=0.958
binder="Ube2N^R14E (enzyme, UniProt P61088 1-152, looked up, Ube2N, ubiquitin-conjugating enzyme E2 N, with R14E; source: E. coli Rossetta2 (DE3), purified (ion exchange, SEC)) MAGLPRRIIKETQELLAEPVPGIKAEPDESNARYFHVVIAGPQDSPFEGGTFKLELFLPEEYPMAAPKVRFMTKIYHPNVDKLGRICLDILKDKWSPALQIRTVLLSIQALLSAPNPDDPLANDVAEQWKTNEAQAIETARAWTRLYAMNNI" observed_value=0.854

Look at this binder and give its reported stoichiometry N. Ube2N^R14D (enzyme, UniProt P61088 1-152, looked up, Ube2N, ubiquitin-conjugating enzyme E2 N, with R14D; source: E. coli Rossetta2 (DE3), purified (ion exchange, SEC)) MAGLPRRIIKETQDLLAEPVPGIKAEPDESNARYFHVVIAGPQDSPFEGGTFKLELFLPEEYPMAAPKVRFMTKIYHPNVDKLGRICLDILKDKWSPALQIRTVLLSIQALLSAPNPDDPLANDVAEQWKTNEAQAIETARAWTRLYAMNNI 0.966
